biological target: Potassium voltage-gated channel subfamily A member 3 (Homo sapiens, UniProt P22001); assay: Relative T cell IC50 compared to IC50 for correolide assay; assay type: functional, cell-based
Sequence (P22001 whole entry): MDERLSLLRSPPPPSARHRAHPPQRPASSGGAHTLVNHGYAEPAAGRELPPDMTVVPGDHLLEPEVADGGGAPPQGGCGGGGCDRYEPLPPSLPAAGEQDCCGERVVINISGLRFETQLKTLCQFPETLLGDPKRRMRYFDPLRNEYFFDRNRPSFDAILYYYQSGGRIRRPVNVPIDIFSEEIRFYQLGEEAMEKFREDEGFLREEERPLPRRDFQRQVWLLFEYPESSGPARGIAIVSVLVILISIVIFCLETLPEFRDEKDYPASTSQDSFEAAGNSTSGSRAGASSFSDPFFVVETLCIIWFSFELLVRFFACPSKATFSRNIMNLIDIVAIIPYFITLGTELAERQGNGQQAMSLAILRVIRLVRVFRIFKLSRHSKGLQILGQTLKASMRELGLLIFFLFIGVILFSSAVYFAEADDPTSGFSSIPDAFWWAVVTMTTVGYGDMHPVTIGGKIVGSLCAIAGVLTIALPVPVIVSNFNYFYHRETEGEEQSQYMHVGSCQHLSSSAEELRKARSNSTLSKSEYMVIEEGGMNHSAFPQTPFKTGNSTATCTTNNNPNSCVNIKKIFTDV
measurement type: Ratio

Report Ratio for CC(=O)O[C@H]1C2[C@@](C)(CCC3C(O)(CC(C)(C)c4ccccc4)C(C)=C[C@@H](OC(C)=O)[C@@]32C)C2C=CCOC[C@]2([C@@H](C)OC(C)=O)[C@H]1OC(C)=O (stereo partly drawn) please.
1

Fill in the blank: the reported Ratio of CC[C@H](CC1(O)C(C)=C[C@@H](OC(C)=O)[C@@]2(C)C1CC[C@]1(C)C2[C@H](OC(C)=O)[C@H](OC(C)=O)[C@@]2([C@@H](C)OC(C)=O)COCC=CC12)c1ccccc1OC (stereo partly drawn) is ____.
6.3

Name the reported Ratio value associated with the compound CC(=O)O[C@H]1C2[C@@](C)(CCC3C(O)(C[C@@H](C)c4ccccc4)C(C)=C[C@@H](OC(C)=O)[C@@]32C)C2C=CCOC[C@]2([C@@H](C)OC(C)=O)[C@H]1OC(C)=O (stereo partly drawn)
1.8

Requested read-out: Ratio. Entry: COc1ccccc1CCC1(O)C(C)=C[C@@H](OC(C)=O)[C@@]2(C)C1CC[C@]1(C)C2[C@H](OC(C)=O)[C@H](OC(C)=O)[C@@]2([C@@H](C)OC(C)=O)COCC=CC12 (stereo partly drawn)
1.3

Given the compound C=C(CC1(O)C(C)=C[C@@H](OC(C)=O)[C@@]2(C)C1CC[C@]1(C)C2[C@H](OC(C)=O)[C@H](OC(C)=O)[C@@]2([C@@H](C)OC(C)=O)COCC=CC12)c1ccccc1SCC (stereo partly drawn) , what is its reported Ratio?
5.8

Returns the measured Ratio for the input compound. Input: C=C(C[C@]1(O)C(C)=C[C@@H](OC(C)=O)[C@]2(C)C3[C@H](OC(C)=O)[C@H](OC(C)=O)[C@@]4([C@@H](C)OC(C)=O)COCC=CC4[C@]3(C)CCC21)c1ccccc1 (stereo partly drawn)
1.4

Return reported Ratio; argument: CCOc1ccccc1CCC1(O)C(C)=C[C@@H](OC(C)=O)[C@@]2(C)C1CC[C@]1(C)C2[C@H](OC(C)=O)[C@H](OC(C)=O)[C@@]2([C@@H](C)OC(C)=O)COCC=CC12 (stereo partly drawn)
2.3

What does the data say about its Ratio? Entry: C=CC[C@H](CC1(O)C(C)=C[C@@H](OC(C)=O)[C@@]2(C)C1CC[C@]1(C)C2[C@H](OC(C)=O)[C@H](OC(C)=O)[C@@]2([C@@H](C)OC(C)=O)COCC=CC12)c1ccccc1OC (stereo partly drawn)
5.6
